# assayed.system: Pituitary adenylate cyclase-activating polypeptide (Rattus norvegicus, UniProt P13589)
# Sequence (P13589 whole entry): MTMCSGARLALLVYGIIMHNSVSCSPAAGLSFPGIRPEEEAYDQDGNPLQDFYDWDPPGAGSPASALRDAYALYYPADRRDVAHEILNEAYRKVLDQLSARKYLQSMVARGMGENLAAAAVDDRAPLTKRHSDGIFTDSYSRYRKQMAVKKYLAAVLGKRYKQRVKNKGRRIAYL
readout.type: Ki

# get_value(readout='Ki', item= H-HSDGIFTDSYSRYRKQMAVKKYLNSILN-NH2 [PACAP(1-23),VIP(24-28)] )
3.1 nM
